The reported numbers originate from PubChem BioAssay (NCI).

- System: SK-OV-3 ovarian
- experiment-notes: NCI tumour cell line growth inhibition, 48 h
Property: TGI; scope: individual molecules

Here is how some molecules turned out for TGI.
COc1ccc(C2NC(=S)NC3=C2COc2ccc(F)cc23)cc1OC (configuration not stated); > 100 µM
C(/C=C/N1CCCC1)=C\c1nc(N2CCCC2)c2ccccc2n1; 36.3 µM
COc1ccc(CNC(=O)c2ccc(-c3cc(-c4nnc(C)o4)ccc3C)cc2)cc1; > 25 µM
O=C1CN(c2ccccc2)C(=O)C1C(=O)Nc1ccc(Cl)c(Cl)c1 (configuration not stated); 15.8 µM
CCC(C)C(NC(=O)C(CCCC[N+](=N)N)NC(=O)C(CCCC[N+](=N)N)NC(=O)c1ccc(OC)cc1)C(=O)NC(CCCC[N+](=N)N)C(=O)N1CCCC1C(=O)NC(CCCCN)C(=O)NC(CC(C)C)C(N)=O (configuration not stated); > 100 µM

--- query ---
TGI lookup needed for C1=CC=C2NCCSCCNC3=CC=CC=CC3=NCCSCCN=C2C=C1 , thanks. > 100 µM

---

- Test system: HCT-116 colon
- experiment-notes: NCI tumour cell line growth inhibition, 48 h
experimental-endpoint: TGI

CC(=O)Oc1ccc2c(c1)O/C(=C\c1ccc(O)cc1)C2=O; > 100 µM

TGI lookup needed for COc1ccc2c(c1)CCC(CN1CCN(CCOC(c3ccccc3)c3ccccc3)CC1)C2O (stereo unspecified) , thanks. 24.8 µM

TGI lookup needed for COc1ccc(CNC(=O)c2ccc(-c3cc(-c4nnc(C)o4)ccc3C)cc2)cc1 , thanks. > 25 µM

TGI lookup needed for COc1ccc(-c2nc(/C=N/Nc3cc(C)nc4ccc(Br)cc34)c(C)o2)cc1 , thanks. 3.36 µM

---

- Tested on: MCF7 breast
- experiment-notes: NCI tumour cell line growth inhibition, 48 h
Property: TGI; scope: individual molecules

Here is how some molecules turned out for TGI.
COC(=O)Cc1c2n(c3ccccc13)C(=O)N1c3ccccc3C(CC(=O)OC)C21 (stereo not drawn); > 100 µM
COc1ccc(C2NC(=S)NC3=C2COc2ccc(F)cc23)cc1OC (stereo not drawn); > 100 µM

--- query ---
Kindly state the measured TGI obtained for CC(=O)N=S(NC(=O)c1ccc(C)cc1)C(Cl)(Cl)Cl (stereo not drawn) with MCF7 breast. > 100 µM

---

- Tested on: SW-620 colon
- experiment-notes: NCI tumour cell line growth inhibition, 48 h
experimental-endpoint: TGI

O=C(O)C12C3C4(C(=O)O)C1C1(C(=O)O)C2C3(C(=O)O)C41 (stereo not given); > 100 µM
CN1CCN(CCCOc2ccc3ncnc(Nc4ccc(Oc5cccc(F)c5)c(Cl)c4)c3c2)CC1; 3.25 µM
C=C1C[C@@H]2CC[C@@]34CC5O[C@H]6C(O[C@H]7CC[C@H](CC(=O)O[C@@H]8[C@@H](C)[C@@H]9O[C@@H]%10C[C@]%11(C[C@@H]%12O[C@]%13(C[C@H](C)[C@@H]%14O[C@@H]%15CC(C(COC(C)=O)OC(C)=O)O[C@@H]%15C[C@@H]%14O%13)C[C@H](C)[C@@H]%12O%11)O[C@@H]%10C[C@@H]9O[C@H]8CC8O[C@@H](CC[C@@H]1O2)C[C@@H](C)C8(O)CO)O[C@@H]7[C@@H]6O3)[C@H]5O4 (stereo not given in full); > 1 µM
O=C1CN(c2ccccc2)C(=O)C1C(=O)Nc1ccc(Cl)c(Cl)c1 (stereo not given); 11.9 µM
COc1ccc(-c2conc2-c2ccccc2)cc1; > 100 µM

--- query ---
TGI lookup needed for CC1=CC(O)CC(C)(C)C1/C=C/C(C)=C/C=C/C(C)=C/C=C/C=C(C)/C=C/C=C(C)/C=C/C1=C(C)CC(O)CC1(C)C (stereo not given) , thanks. 34.8 µM

---

Property: TGI; scope: individual molecules
- Tested on: NCI-H460 lung
- experiment-notes: NCI tumour cell line growth inhibition, 48 h

Here is how some molecules turned out for TGI.
C=C1c2ccccc2N(S(=O)(=O)c2ccc(C)cc2)C12CCCCC2; > 100 µM
C[N+]1(CCCCN2c3ccccc3Sc3cc(N=[N+]=[N-])ccc32)CCN(C(=O)CCNC(=O)Cc2ccc(C(=O)c3ccccc3)cc2)CC1; > 74.2 µM

--- query ---
TGI lookup needed for CC1(C)Oc2ccccc2N2O[C@@H]3C(=O)N(c4ccccc4)C(=O)[C@@H]3C21c1ccccc1 (stereo partly drawn) , thanks. > 100 µM

---

- Tested on: LOX IMVI melanoma
- experiment-notes: NCI tumour cell line growth inhibition, 48 h
experimental-endpoint: TGI (µM)
Kindly answer with a numeric value in µM, unit omitted.

Here is how some molecules turned out for TGI.
CC(Br)CN(CC(C)Br)c1ccc2c(c1)Cc1ccccc1-2 (configuration not stated); 23.2
OC(CCN1CCN(CCOC(c2ccc(F)cc2)c2ccc(F)cc2)CC1)c1ccc(Br)cc1 (configuration not stated); 4.07
Clc1sc(Cl)c2c1[C@H](Br)C[C@@H]2Cl; 49.5

TGI lookup needed for CC(C)c1ccc2c(c1)c(SC(C)(C)C)c(CC(C)(C)C(=O)O)n2Cc1ccc(Cl)cc1 , thanks. 24.7

TGI lookup needed for N#Cc1c(-c2ccc(Cl)cc2)csc1NC(=O)Nc1cccc(C(F)(F)F)c1 , thanks. 9.48

TGI lookup needed for CN1CCN(CCCOc2ccc3ncnc(Nc4ccc(Oc5cccc(F)c5)c(Cl)c4)c3c2)CC1 , thanks. 3.1

TGI lookup needed for NCCn1c2c(c3ccccc3c1=O)C(=O)c1ccccc1-2 , thanks. 1.78

---

Property: TGI; scope: individual compounds
- System: UACC-62 melanoma
- experiment-notes: NCI tumour cell line growth inhibition, 48 h
Kindly answer with a numeric value in µM, unit omitted.

Cc1ccc(S(=O)c2ccc([N+](=O)[O-])c3nonc23)cc1 (centres undefined); 20.2
COC(=O)C1=C(C(=O)OC)C(C(=O)OC)C(C(=O)OC)C(C(=O)OC)(C(=O)OC)C(C(=O)OC)=C1C(=O)OC (centres undefined); 31
CC1OC2OC3C(OCC(O)C3O)OC(=O)[C@]34CCC(C)(C)CC3C3=CCC5[C@@]6(C)C[C@H](O)[C@H](OC7OC(CO)C(O)C(O)C7OC7OC(COC(=O)CC(C)(O)CC(=O)OC1C(OC1OC(CO)C(O)C(O)C1O)C2O)C(O)C(O)C7O)[C@@](C)(CO)C6CC[C@@]5(C)[C@]3(C)CC4 (some centres undefined); 3.38

--- query ---
TGI lookup needed for C/C(N=NC(=S)N1CCCCCC1)=C1\C=CC=CN1O , thanks. 24.6

---

- Tested on: COLO 205 colon
- experiment-notes: NCI tumour cell line growth inhibition, 48 h
Property: TGI; scope: individual compounds

Here is how some compounds turned out for TGI.
COc1ccc(CNC(=O)c2ccc(-c3cc(-c4nnc(C)o4)ccc3C)cc2)cc1; > 25 µM
CC(=O)OC1COC(N2c3ccccc3[C@@H]3CCc4c([nH]c5ccccc45)[C@@H]32)C(OC(C)=O)C1OC(C)=O (mixture of isomers); > 100 µM
COc1cc(/C=C2/C(=O)N(C(=O)c3ccccc3O)N=C2C)ccc1O; > 80.7 µM

Kindly state the measured TGI obtained for O=C(/C=C/CC(O)(c1ccccc1)c1ccccc1)Nc1ccccc1Cl with COLO 205 colon. > 100 µM

Kindly state the measured TGI obtained for Nc1nc(Cl)cc(NCCCCCCNc2cc(Cl)nc(N)n2)n1 with COLO 205 colon. > 100 µM

Kindly state the measured TGI obtained for O=C1CCCC2=C1CC1=C(CCCC1=O)N2c1ccc(-c2ccccc2)cc1 with COLO 205 colon. > 100 µM

---

- Test system: HL-60(TB) leukemia
- experiment-notes: NCI tumour cell line growth inhibition, 48 h
Property: TGI; scope: individual compounds

Here is how some compounds turned out for TGI.
CC(C)(C)[Si](C)(C)OC1CCOC1(O)c1ccccn1 (stereo not drawn); > 100 µM
COc1cc(/C=C2/C(=O)N(C(=O)c3ccccc3O)N=C2C)ccc1O; > 52.9 µM

TGI lookup needed for COc1cccc(Nc2nc3c([nH]2)c(=O)n(C)c(=O)n3C)c1 , thanks. > 10 µM

---

- System: OVCAR-8 ovarian
- experiment-notes: NCI tumour cell line growth inhibition, 48 h
Property: TGI; scope: individual molecules

Here is how some molecules turned out for TGI.
CN(C)CN1C(=O)/C(=N\n2c(-c3ccncc3)n[nH]c2=S)c2ccccc21; 65.2 µM
Cc1ccc(NCCNCC(O)CO)c2c(=O)c3ccccc3sc12 (centres undefined); 4.77 µM

TGI lookup needed for COc1ccc(C(=O)/C=C/c2ccc(OCCCCCCCCCCOc3ccc(/C=C/C(=O)c4ccc(OC)c(OC)c4)cc3)cc2)c(OC)c1 , thanks. > 100 µM

TGI lookup needed for CCC(C)C(NC(=O)C(CCCC[N+](=N)N)NC(=O)C(CCCC[N+](=N)N)NC(=O)c1ccc(OC)cc1)C(=O)NC(CCCC[N+](=N)N)C(=O)N1CCCC1C(=O)NC(CCCCN)C(=O)NC(CC(C)C)C(N)=O (centres undefined) , thanks. > 100 µM
